Hey, just so you know, these numbers are from the CheMixHub viscosity set.

Here the recorded viscosity is given for each entry.
experiment: xn = mol fraction of the nth substance listed; conditions: 298.15 K; 101 kPa; x2 = 0.25
property-label: viscosity (mPa·s)

> print(dat)
            molecule  property.label  value.reported
1     CCCCCCCCO + CO       viscosity           5.002
2   CCCCCCCCO + CCCO       viscosity           5.742
3    CCCCCCCCO + CCO       viscosity           5.273
4  CCCCCCCCO + CCCCO       viscosity           5.917

* * *

assay: xn = mol fraction of the nth substance listed; details: 318.15 K; 101 kPa; x2 = 0.1
± gives the uncertainty stated by the source.
property-label: viscosity

> print(dat)
            molecule       value.reported
1     CCCCCCCCO + CO  3.463 ± 0.032 mPa·s
2  CCCCCCCCO + CCCCO  3.602 ± 0.034 mPa·s
3   CCCCCCCCO + CCCO  3.555 ± 0.033 mPa·s
4    CCCCCCCCO + CCO   3.51 ± 0.033 mPa·s

* * *

assay: xn = mol fraction of the nth substance listed; details: 298.15 K; 101 kPa; x2 = 0.45
property-label: viscosity (mPa·s)

> print(dat)
            compound  value.reported
1  CCCCCCCCO + CCCCO            4.87
2     CCCCCCCCO + CO           3.418
3   CCCCCCCCO + CCCO           4.568
4    CCCCCCCCO + CCO           3.871

* * *

Here the recorded viscosity is given for each entry.
assay: xn = mol fraction of the nth substance listed; conditions: 318.15 K; 101 kPa; x2 = 0.95
property-label: viscosity (mPa·s)

> print(dat)
            compound  value.reported
1    CCCCCCCCO + CCO          0.8687
2   CCCCCCCCO + CCCO           1.329
3  CCCCCCCCO + CCCCO           1.648
4     CCCCCCCCO + CO          0.5296

* * *

test: xn = mol fraction of the nth substance listed; conditions: 298.15 K; 101 kPa; x2 = 0.6
property-label: log10 of viscosity (log10 of the value in mPa·s)

> print(dat)
            molecule      property.label  value.reported
1    CCCCCCCCO + CCO  log10 of viscosity            0.47
2   CCCCCCCCO + CCCO  log10 of viscosity            0.57
3  CCCCCCCCO + CCCCO  log10 of viscosity            0.62
4          CC#N + CO  log10 of viscosity           -0.43
5     CCCCCCCCO + CO  log10 of viscosity            0.38

* * *

experiment: xn = mol fraction of the nth substance listed; details: 308.15 K; 101 kPa; x2 = 0.1
property-label: viscosity (mPa·s)

> print(dat)
            molecule  property.label  value.reported
1   CCCCCCCCO + CCCO       viscosity           4.637
2     CCCCCCCCO + CO       viscosity           4.633
3    CCCCCCCCO + CCO       viscosity            4.73
4  CCCCCCCCO + CCCCO       viscosity           4.867

* * *

Here the recorded viscosity is given for each entry.
assay: xn = mol fraction of the nth substance listed; conditions: 308.15 K; 101 kPa; x2 = 0.65
property-label: viscosity (mPa·s)

> print(dat)
            molecule  value.reported
1  CCCCCCCCO + CCCCO           2.955
2   CCCCCCCCO + CCCO           2.696
3     CCCCCCCCO + CO           1.708
4    CCCCCCCCO + CCO           2.096

* * *

Here the recorded viscosity is given for each entry.
assay: xn = mol fraction of the nth substance listed; settings: 318.15 K; 101 kPa; x2 = 0.05
± gives the uncertainty stated by the source.
property-label: viscosity

> print(dat)
            molecule  property.label       value.reported
1    CCCCCCCCO + CCO       viscosity  3.689 ± 0.034 mPa·s
2  CCCCCCCCO + CCCCO       viscosity  3.734 ± 0.035 mPa·s
3     CCCCCCCCO + CO       viscosity  3.665 ± 0.034 mPa·s
4   CCCCCCCCO + CCCO       viscosity   3.71 ± 0.034 mPa·s

* * *

test: xn = mol fraction of the nth substance listed; conditions: 298.15 K; 101 kPa; x2 = 0.65
± gives the uncertainty stated by the source.
property-label: viscosity

> print(dat)
            compound       value.reported
1     CCCCCCCCO + CO  2.106 ± 0.018 mPa·s
2  CCCCCCCCO + CCCCO  3.915 ± 0.036 mPa·s
3    CCCCCCCCO + CCO  2.668 ± 0.024 mPa·s
4   CCCCCCCCO + CCCO  3.501 ± 0.032 mPa·s

* * *

assay: xn = mol fraction of the nth substance listed; conditions: 318.15 K; 101 kPa; x2 = 0.3
property-label: viscosity (mPa·s)

> print(dat)
            compound  value.reported
1  CCCCCCCCO + CCCCO           3.097
2     CCCCCCCCO + CO           2.676
3    CCCCCCCCO + CCO           2.805
4   CCCCCCCCO + CCCO           2.982

* * *

Here the recorded viscosity is given for each entry.
assay: xn = mol fraction of the nth substance listed; conditions: 318.15 K; 101 kPa; x2 = 0.75
± gives the uncertainty stated by the source.
property-label: viscosity

> print(dat)
            compound        value.reported
1   CCCCCCCCO + CCCO   1.811 ± 0.016 mPa·s
2  CCCCCCCCO + CCCCO   2.055 ± 0.018 mPa·s
3    CCCCCCCCO + CCO   1.391 ± 0.012 mPa·s
4     CCCCCCCCO + CO  1.081 ± 0.0094 mPa·s

* * *

test: xn = mol fraction of the nth substance listed; settings: 308.15 K; 101 kPa; x2 = 0.55
property-label: viscosity (mPa·s)

> print(dat)
            molecule  value.reported
1    CCCCCCCCO + CCO           2.512
2  CCCCCCCCO + CCCCO           3.275
3   CCCCCCCCO + CCCO           3.036
4     CCCCCCCCO + CO           2.166

* * *

experiment: xn = mol fraction of the nth substance listed; conditions: 308.15 K; 101 kPa; x2 = 0.8
Here the recorded viscosity is given for each entry.
property-label: viscosity (mPa·s)

> print(dat)
            compound  value.reported
1     CCCCCCCCO + CO           1.101
2   CCCCCCCCO + CCCO           2.147
3  CCCCCCCCO + CCCCO           2.502
4    CCCCCCCCO + CCO           1.535

* * *

assay: xn = mol fraction of the nth substance listed; conditions: 308.15 K; 101 kPa; x2 = 0.75
property-label: viscosity (mPa·s)

> print(dat)
            compound  property.label  units.label  value.reported
1     CCCCCCCCO + CO       viscosity        mPa·s           1.292
2    CCCCCCCCO + CCO       viscosity        mPa·s           1.714
3   CCCCCCCCO + CCCO       viscosity        mPa·s           2.333
4  CCCCCCCCO + CCCCO       viscosity        mPa·s           2.649

* * *

test: xn = mol fraction of the nth substance listed; conditions: 318.15 K; 101 kPa; x2 = 0.55
property-label: viscosity (mPa·s)

> print(dat)
            compound  value.reported
1     CCCCCCCCO + CO           1.748
2  CCCCCCCCO + CCCCO           2.502
3    CCCCCCCCO + CCO           1.982
4   CCCCCCCCO + CCCO            2.32
